Tested on: A549/ATCC NSCLC
Test: NCI-60 one-dose screen, 48 h (100 = growth as untreated, 0 = no growth, -100 = all killed)
Conditions: 10 µM unless noted
The panel holds about 83,000 compounds, 20% with a hit somewhere; the sample as a whole holds those more often. Activity calls are given as the source filed them. Rule for the calls: active = growth percent below 10; inactive = the rest.
readoutLabel: growth

compound	result
CNC(=O)c1cc(Oc2ccc3nc(NC(=O)Nc4ccc(CN5CCOCC5)c(C(F)(F)F)c4)sc3c2)ccn1	20.9% (inactive)
Nc1ccc(N2CCOCC2)cc1	110% (inactive)
CC1=C(NCCN2CCCC2)C(=O)c2c(OCc3ccc(F)c(Cl)c3)cccc2C1=O	78.3% (inactive)
OCC1C2C=CC(C2)C1CO (stereo not given)	89% (inactive)
O=C(O)c1ccc(=O)[nH]n1	116% (inactive)
Cc1ccc(S(=O)(=O)N(CCc2ccc(Cl)cc2)S(=O)(=O)c2ccc(C)cc2)cc1	88.3% (inactive)
COc1ccc(C(=O)/C=C/c2cc3ccccc3[nH]c2=O)cc1	42.3% (inactive)
CN1CCN(Cc2ccc(NC(=O)c3[nH]ncc3Nc3ncnc4sccc34)cc2)CC1	13.5% (inactive)
O=C1CCc2c(sc3[nH]c(=S)n(Cc4ccccc4)c(=O)c23)C1	13.9% (inactive)
COC1/C=C\OC2(C)Oc3c(C)c(O)c4c(O)c(c(CN(C)CCO)c(O)c4c3C2=O)NC(=O)/C(C)=C\C=C/C(C)C(O)C(C)C(O)C(C)C(OC(C)=O)C1C (stereo not given)	116% (inactive)
